# credit: patent US10273305B2

# Tested on: HIV-1 X4 UG270 clinical isolate (clade D)
# PROCEDURE_SUMMARY: HIV-1 UG270 infection of PBMCs, p24
# Assay type: cell-based
# REPORTED_CONDITIONS: Human immunodeficiency virus 1; PBMC, average 2 donors
VALUE_TYPE: IC50 (µM)
Give bare numbers, in µM.

Query c1cc(CN2CCCNCCNCCCNCC2)ccc1CN1CCCNCCNCCCNCC1 [AMD3100, plerixafor] yields IC50 of 0.016
